experiment-description: Compound solubility in water
details: water, Compound Solubility in Water
property-label: solubility (µg/mL)
I only need the number, in µg/mL, no unit after it.

> print(dat)
                                   compound  property.label  result.unit  observed.value
1  CCCCCO[C@H]1CC[C@H](NC(=O)c2ccn3c(C)cc(C)nc23)C1      solubility        µg/mL             9.2

The recorded solubility for O=C(NC1CCCc2ccccc21)c1ccn2c(C(F)F)cc(C(F)F)nc12 (stereo not drawn) is 0.2

The recorded solubility for Cc1cc(C)n2ccc(C(=O)Nc3ccc(-c4cccs4)cn3)c2n1 is 0.003

The recorded solubility for Cc1cc(C)n2ccc(C(=O)NC3c4ccccc4C4CC3C4)c2n1 (stereo not drawn) is 2.7
